experimentalDetails: Peptide degradation in a HeLa cytosolic lysate
Type: in vitro ADME, human
testSettings: human, HeLa cytosolic lysate
Square brackets hold non-standard residues; d marks the D form. Peptide text beside a SMILES is read from it. * marks the point of attachment. 6FAM = O=C1OC2(c3ccc(O)cc3Oc3cc(O)ccc32)c2cc(C(=O)*)ccc21; NMeR = CN[C@@H](CCCNC(=N)N)C(=O)O; βAla = NCCC(=O)O
# half-life at 1 μM listing for each entry below
Write the value in min as a bare number.

C[C@H](NC(=O)[C@H](Cc1ccccc1)NC(=O)[C@@H](NC(=O)CCNC(=O)[C@H](C)NC(=O)[C@H](CCCNC(=N)N)N(C)C(=O)[C@@H]1CCCN1C(=O)[C@H](CCCNC(=N)N)NC(=O)CNC(=O)c1ccc2c(c1)C1(OC2=O)c2ccc(O)cc2Oc2cc(O)ccc21)[C@@H](C)O)C(=O)N[C@@H](CCC(=O)O)C(=O)NCC(N)=O [IV-A, 6FAM-GRP-MeArg-A-βAla-TFAEG] (6FAM-GRP[NMeR]A[βAla]TFAEG-NH2) :: 14

Form: compound = C[C@H](NC(=O)[C@H](C)NC(=O)[C@@H](CCCNC(=N)N)NC(=O)[C@@H]1CCCN1C(=O)[C@H](CCCNC(=N)N)NC(=O)CNC(=O)c1ccc2c(c1)C1(OC2=O)c2ccc(O)cc2Oc2cc(O)ccc21)C(=O)N[C@H](C(=O)N[C@@H](Cc1ccccc1)C(=O)N[C@@H](C)C(=O)N[C@@H](CCC(=O)O)C(=O)NCC(N)=O)[C@@H](C)O [III-D, 6FAM-GRP-DArg-AATFAEG] (6FAM-GRP[dR]AATFAEG-NH2) ; half-life at 1 μM = 17

Record C[C@H](NC(=O)[C@H](C)NC(=O)[C@H](CCCNC(=N)N)N(C)C(=O)[C@@H]1CCCN1C(=O)[C@H](CCCNC(=N)N)NC(=O)CNC(=O)c1ccc2c(c1)C1(OC2=O)c2ccc(O)cc2Oc2cc(O)ccc21)C(=O)N[C@H](C(=O)N[C@@H](Cc1ccccc1)C(=O)N[C@@H](C)C(=O)N[C@@H](CCC(=O)O)C(=O)NCC(N)=O)[C@@H](C)O [III-B, 6FAM-GRP-MeArg-AATFAEG] (6FAM-GRP[NMeR]AATFAEG-NH2) , field half-life at 1 μM: 2

Sure, the documented half-life at 1 μM for C[C@H](NC(=O)[C@H](CCCNC(=N)N)N(C)C(=O)[C@@H]1CCCN1C(=O)[C@H](CCCNC(=N)N)NC(=O)CNC(=O)c1ccc2c(c1)C1(OC2=O)c2ccc(O)cc2Oc2cc(O)ccc21)C(=O)N[C@@H](Cc1ccccc1)C(=O)N[C@H](C(=O)N[C@@H](Cc1ccccc1)C(=O)N[C@H](C)C(=O)N[C@@H](CCC(=O)O)C(=O)NCC(N)=O)[C@@H](C)O [V-B, 6FAM-GRP-MeArg-AFTF-DAla-EG] (6FAM-GRP[NMeR]AFTF[dA]EG-NH2) is 895

----------
experimentalDetails: Peptide degradation in a HeLa cytosolic lysate
Assay type: in vitro ADME, human
testSettings: human, HeLa cytosolic lysate
Square brackets hold non-standard residues; d marks the D form. Peptide text beside a SMILES is read from it. * marks the point of attachment. 6FAM = O=C1OC2(c3ccc(O)cc3Oc3cc(O)ccc32)c2cc(C(=O)*)ccc21; Phe(F5) = N[C@@H](Cc1c(F)c(F)c(F)c(F)c1F)C(=O)O; NMeR = CN[C@@H](CCCNC(=N)N)C(=O)O; NMeF = CN[C@@H](Cc1ccccc1)C(=O)O
This listing pairs molecules with measured half-life at 1 μM.
Answer format: numeric, min implied, no suffix.

Known results for molecules:
C[C@H](NC(=O)[C@H](Cc1ccccc1)NC(=O)[C@@H](NC(=O)[C@H](Cc1ccccc1)N(C)C(=O)[C@H](C)NC(=O)[C@H](CCCNC(=N)N)N(C)C(=O)[C@@H]1CCCN1C(=O)[C@H](CCCNC(=N)N)NC(=O)CNC(=O)c1ccc2c(c1)C1(OC2=O)c2ccc(O)cc2Oc2cc(O)ccc21)[C@@H](C)O)C(=O)N[C@@H](CCC(=O)O)C(=O)NCC(N)=O [IV-E, 6FAM-GRP-MeArg-A-MePhe-TFAEG] (6FAM-GRP[NMeR]A[NMeF]TFAEG-NH2) :: 2
C[C@H](NC(=O)[C@H](Cc1c(F)c(F)c(F)c(F)c1F)NC(=O)[C@@H](NC(=O)[C@H](Cc1ccccc1)NC(=O)[C@H](C)NC(=O)[C@H](CCCNC(=N)N)N(C)C(=O)[C@@H]1CCCN1C(=O)[C@H](CCCNC(=N)N)NC(=O)CNC(=O)c1ccc2c(c1)C1(OC2=O)c2ccc(O)cc2Oc2cc(O)ccc21)[C@@H](C)O)C(=O)N[C@@H](CCC(=O)O)C(=O)NCC(N)=O [V-A, 6FAM-GRP-MeArg-AFT-Phe(F5)-AEG] (6FAM-GRP[NMeR]AFT[Phe(F5)]AEG-NH2) :: 88

Now for a further molecule.
Entry C[C@H](NC(=O)[C@H](Cc1ccccc1)NC(=O)[C@@H](NC(=O)[C@@H](C)NC(=O)[C@H](C)NC(=O)[C@H](CCCNC(=N)N)N(C)C(=O)[C@@H]1CCCN1C(=O)[C@H](CCCNC(=N)N)NC(=O)CNC(=O)c1ccc2c(c1)C1(OC2=O)c2ccc(O)cc2Oc2cc(O)ccc21)[C@@H](C)O)C(=O)N[C@@H](CCC(=O)O)C(=O)NCC(N)=O [IV-B, 6FAM-GRP-MeArg-A-DAla-TFAEG] (6FAM-GRP[NMeR]A[dA]TFAEG-NH2) — recorded half-life at 1 μM = 32

----------
experimentalDetails: Peptide degradation in a HeLa cytosolic lysate
Format: in vitro ADME, human
testSettings: human, HeLa cytosolic lysate
Square brackets hold non-standard residues; d marks the D form. Peptide text beside a SMILES is read from it. * marks the point of attachment. 6FAM = O=C1OC2(c3ccc(O)cc3Oc3cc(O)ccc32)c2cc(C(=O)*)ccc21; NMeR = CN[C@@H](CCCNC(=N)N)C(=O)O
Catalogue of molecules with associated half-life at 1 μM
# output: bare number, implied unit min

C[C@H](NC(=O)[C@H](Cc1ccccc1)NC(=O)[C@@H](NC(=O)[C@H](CCC(=O)O)NC(=O)[C@H](C)NC(=O)[C@H](CCCNC(=N)N)N(C)C(=O)[C@@H]1CCCN1C(=O)[C@H](CCCNC(=N)N)NC(=O)CNC(=O)c1ccc2c(c1)C1(OC2=O)c2ccc(O)cc2Oc2cc(O)ccc21)[C@@H](C)O)C(=O)N[C@@H](CCC(=O)O)C(=O)NCC(N)=O [IV-C, 6FAM-GRP-MeArg-A-Glu-TFAEG] (6FAM-GRP[NMeR]AETFAEG-NH2) :: 37

Value of measured half-life at 1 μM for the entry C[C@H](NC(=O)[C@H](Cc1ccccc1)NC(=O)[C@@H](NC(=O)[C@H](Cc1ccccc1)NC(=O)[C@H](C)NC(=O)[C@H](CCCNC(=N)N)N(C)C(=O)[C@@H]1CCCN1C(=O)[C@H](CCCNC(=N)N)NC(=O)CNC(=O)c1ccc2c(c1)C1(OC2=O)c2ccc(O)cc2Oc2cc(O)ccc21)[C@@H](C)O)C(=O)N[C@@H](CCC(=O)O)C(=O)NCC(N)=O [IV-D, 6FAM-GRP-MeArg-A-FTFAEG] (6FAM-GRP[NMeR]AFTFAEG-NH2) : 14

Reference source: paper PMC3428732
